- Test system: S. aureus ATCC 43300
- method_notes: MIC test according to CLSI M7-A9, S. aureus ATCC 43300
- Type: cell-based
- settings: Staphylococcus aureus, ATCC43300; CLSI M7-A9, CAMHB, 24 h (Table 2); read-out: S. aureus ATCC 43300 MIC at 24 h
metric_name: MIC (µg/mL)
Report as a plain number; the unit µg/mL is understood.

Some molecules with recorded MIC:
Cc1ccc(S(=O)(=O)CCCNc2nc(-c3ccc(C(C)(C)C)cc3)nc3cc(=O)[nH]n23)cc1C [Example 58] :: 64
CC(C)(C)c1ccc(-c2nc(NCCCOc3ccccc3)n3[nH]c(=O)cc3n2)cc1 [Example 33] :: 8
CC(C)(C)c1ccc(-c2nc(NCCCNc3ccccc3)n3[nH]c(=O)cc3n2)cc1 [Example 43] :: 8
CC(C)(C)c1ccc(-c2nc(NCCCNC3Cc4ccccc4C3)n3[nH]c(=O)cc3n2)cc1 [Example 42] :: 8
CN1CCN(c2nc(-c3ccc(C(C)(C)C)cc3)nc3cc(=O)[nH]n23)CC1 [Example 18] :: 64

Q: Determine its reported MIC: Cc1cc(OCCCNc2nc(-c3ccc(C(C)(C)C)cc3)nc3cc(=O)[nH]n23)ccc1Cl [Example 14]
A: 4

Q: Determine its reported MIC: Cc1ccc(OCCCNc2nc(-c3ccc(C(C)(C)C)cc3)nc3cc(=O)[nH]n23)cc1C [Example 49]
A: 16

Q: Determine its reported MIC: Cc1cc(N2CCC(Nc3nc(-c4ccc(C(C)(C)C)cc4)nc4cc(=O)[nH]n34)CC2)ccc1Cl [Example 62]
A: 16

Q: Determine its reported MIC: Cc1ccc(-c2nc(NCCCNc3ccc(Cl)c(C)c3)n3[nH]c(=O)cc3n2)cc1 [Example 68]
A: 8

Q: Determine its reported MIC: Cc1cc(NCC(F)CNc2nc(-c3ccc(C(C)(C)C)cc3)nc3cc(=O)[nH]n23)ccc1Cl (stereo not shown) [Example 66]
A: 2

Q: Determine its reported MIC: CC(C)(C)c1ccc(-c2nc3cc(=O)[nH]n3c(=S)[nH]2)cc1 [Example 1]
A: 16

Q: Determine its reported MIC: CC(C)(C)c1ccc(-c2nc(N3CCC(O)CC3)n3[nH]c(=O)cc3n2)cc1 [Example 20]
A: 128

Q: Determine its reported MIC: CC(C)(C)c1ccc(-c2nc(NC3CCN(C(=O)c4ccccc4)CC3)n3[nH]c(=O)cc3n2)cc1 [Example 63]
A: 128

---

- target_under_test: S. aureus SgtB (Staphylococcus aureus)
- Sequence (Q99T05 68-269): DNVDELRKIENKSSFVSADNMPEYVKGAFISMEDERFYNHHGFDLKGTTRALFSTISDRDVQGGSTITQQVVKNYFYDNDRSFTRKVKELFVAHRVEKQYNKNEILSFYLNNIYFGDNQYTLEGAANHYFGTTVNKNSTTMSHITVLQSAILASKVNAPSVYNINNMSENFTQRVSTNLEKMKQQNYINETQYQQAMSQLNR
- method_notes: Dose-dependent displacement of probe CMG121 from S. aureus SgtB by fluorescence polarization
- Assay type: binding
- Design: made in house
metric_name: IC50

Some compounds with recorded IC50:
CC(C)(C)c1ccc(-c2nc(N)n3[nH]c(=O)cc3n2)cc1 :: > 200 µM
COc1ccc(CNc2nc(-c3ccc(C(C)(C)C)cc3)nc3cc(=O)[nH]n23)cc1 :: > 200 µM

Consider the record given below.
Q: Print S. aureus SgtB (Staphylococcus aureus) IC50 for CNc1nc(-c2ccc(C(C)(C)C)cc2)nc2cc(=O)[nH]n12 .
A: > 200 µM

---

- Tested on: MSSA Newman
- method_notes: MIC test in TSB medium with MTT staining, MSSA Newman
- Assay type: cell-based, Staphylococcus aureus
- settings: Staphylococcus aureus; TSB, 37° C., MTT staining after 24 h; read-out: MSSA Newman MIC at 24 h
metric_name: MIC (µg/mL)
Report as a plain number; the unit µg/mL is understood.

Some molecules with recorded MIC:
CC(C)(C)c1ccc(-c2nc(O)n3[nH]c(=O)cc3n2)cc1 :: 12.5
Cc1cc(OCCNc2nc(-c3ccc(C(C)(C)C)cc3)nc3cc(=O)[nH]n23)ccc1Cl :: 12.5
CC(C)(C)c1ccc(-c2nc(NCCCCc3ccccc3)n3[nH]c(=O)cc3n2)cc1 :: 3.1

Q: Determine its reported MIC: COCCCNc1nc(-c2ccc(C(C)(C)C)cc2)nc2cc(=O)[nH]n12
A: 100

Q: Determine its reported MIC: CCCC(C)Nc1nc(-c2ccc(C(C)(C)C)cc2)nc2cc(=O)[nH]n12 (stereo not drawn)
A: 6.2

Q: Determine its reported MIC: COc1ccc(CNc2nc(-c3ccc(C(C)(C)C)cc3)nc3cc(=O)[nH]n23)cc1
A: 12.5

Q: Determine its reported MIC: Cc1ccc(-c2nc(NCCCNc3ccc(Cl)c(C)c3)n3[nH]c(=O)cc3n2)cc1
A: 3.1

Q: Determine its reported MIC: Cc1cc(OCCCNc2nc(-c3ccc(C(C)(C)C)cc3)nc3cc(=O)[nH]n23)ccc1Cl
A: 3.3

---

Overview of reported MIC across a group of molecules:
- Tested on: MSSA Newman
- method_notes: MIC test in TSB medium with MTT staining, MSSA Newman
- Assay type: cell-based, Staphylococcus aureus
- settings: Staphylococcus aureus; TSB, 37° C., MTT staining after 7 h; read-out: MSSA Newman MIC at 7 h
Report as a plain number; the unit µg/mL is understood.

Some molecules with recorded MIC:
CCCCNc1nc(-c2ccc(C(C)(C)C)cc2)nc2cc(=O)[nH]n12 [Example 16] :: 6.2
Cc1cccc(OCCCNc2nc(-c3ccc(C(C)(C)C)cc3)nc3cc(=O)[nH]n23)c1C [Example 30] :: 1.6
Cc1ccc(OCCCNc2nc(-c3ccc(C(C)(C)C)cc3)nc3cc(=O)[nH]n23)cc1C [Example 49] :: 3.1

Q: Determine its reported MIC: Cc1cc(NCCCNc2nc(-c3ccc(C(C)(C)C)cc3)nc3cc(=O)[nH]n23)ccc1Cl [Example 47]
A: 3.1

Q: Determine its reported MIC: CNc1nc(-c2ccc(C(C)(C)C)cc2)nc2cc(=O)[nH]n12 [Example 17]
A: 50

---

- Tested on: S. aureus ATCC 43300
- method_notes: MIC test according to CLSI M7-A9, S. aureus ATCC 43300
- Assay type: cell-based
- settings: Staphylococcus aureus, ATCC43300; CLSI M7-A9, CAMHB, 24 h (Table 2); read-out: S. aureus ATCC 43300 MIC at 24 h
Overview of reported MIC across a group of compounds:

Some compounds with recorded MIC:
Cc1ccc(-c2nc(NCCCOc3ccc(Cl)c(C)c3)n3[nH]c(=O)cc3n2)cc1 [Example 67] :: > 64 µg/mL
CC(C)(C)c1ccc(-c2nc(N3CCC(OCc4ccccc4)CC3)n3[nH]c(=O)cc3n2)cc1 [Example 21] :: > 128 µg/mL

Consider the record given below.
Q: Determine its reported MIC: CC(C)(C)c1ccc(-c2nc(NCCCn3ccncc3=O)n3[nH]c(=O)cc3n2)cc1 [Example 51]
A: > 64 µg/mL

---

- Test system: MSSA Newman
- method_notes: MIC test in TSB medium with MTT staining, MSSA Newman
- Assay type: cell-based, Staphylococcus aureus
- settings: Staphylococcus aureus; TSB, 37° C., MTT staining after 7 h; read-out: MSSA Newman MIC at 7 h
Overview of reported MIC across a group of compounds:
Report as a plain number; the unit µg/mL is understood.

Some compounds with recorded MIC:
COc1ccc(CNc2nc(-c3ccc(C(C)(C)C)cc3)nc3cc(=O)[nH]n23)cc1 :: 3.1
CC(C)(C)c1ccc(-c2nc3cc(=O)[nH]n3c(=S)[nH]2)cc1 :: 12.5
CC(C)(C)c1ccc(-c2nc(NCCCOc3cnc(Cl)nc3)n3[nH]c(=O)cc3n2)cc1 :: 12.5

Consider the record given below.
Q: Determine its reported MIC: CCCC(C)Nc1nc(-c2ccc(C(C)(C)C)cc2)nc2cc(=O)[nH]n12 (stereo not shown)
A: 3.1
